# STUDY SYSTEM: human plasma butyrylcholinesterase (Homo sapiens, UniProt P06276)
# Construct: The solution of plasma 200-fold diluted with 0.9% NaCl; from tissue; host or cells: citrated plasma from blood of healthy human donors
# Sequence (P06276 29-602): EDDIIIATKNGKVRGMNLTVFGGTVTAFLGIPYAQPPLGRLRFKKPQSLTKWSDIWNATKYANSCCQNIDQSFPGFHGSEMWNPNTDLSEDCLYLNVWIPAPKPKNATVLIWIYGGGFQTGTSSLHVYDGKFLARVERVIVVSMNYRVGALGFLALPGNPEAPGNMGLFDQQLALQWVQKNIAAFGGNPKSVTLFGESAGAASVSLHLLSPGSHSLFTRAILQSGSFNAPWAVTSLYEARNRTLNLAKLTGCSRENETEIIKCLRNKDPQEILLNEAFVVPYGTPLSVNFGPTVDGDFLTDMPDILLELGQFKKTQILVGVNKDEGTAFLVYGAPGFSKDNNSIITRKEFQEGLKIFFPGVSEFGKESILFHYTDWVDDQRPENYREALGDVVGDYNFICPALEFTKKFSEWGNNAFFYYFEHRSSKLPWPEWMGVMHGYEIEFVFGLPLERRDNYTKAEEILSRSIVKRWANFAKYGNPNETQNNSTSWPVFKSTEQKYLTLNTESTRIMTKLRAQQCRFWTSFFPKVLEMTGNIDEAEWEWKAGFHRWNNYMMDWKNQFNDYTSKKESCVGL
# METHOD DESCRIPTION: BuChE inhibition, modified Ellman's method
# Format: biochemical
# EXPERIMENTAL PARAMETERS: IC50 BuChE, experimental data; mean ± SD, n = 6–9
MEASURED ATTRIBUTE: IC50
Express the reported value numerically, then name its unit.

Field: IC50 (human plasma butyrylcholinesterase (Homo sapiens, UniProt P06276)). Entry: CN(C)CCCN1c2ccccc2Sc2ccccc21
0.186 µM

Sourced from paper PMC9102502
